Settings: in isobutanol, 283.15 K
MEASURED_QUANTITY: solubility (mole fraction)

Exercise: Given Cc1c(C(=O)c2c[nH]n(C)c2=O)ccc(S(C)(=O)=O)c1C1=NOCC1 , state its recorded solubility (mole fraction).
Solution: 4.16e-05

----------
Conditions: in isobutyl acetate, 308.15 K
MEASURED_QUANTITY: solubility (mole fraction)

Exercise: Given Cc1c(C(=O)c2c[nH]n(C)c2=O)ccc(S(C)(=O)=O)c1C1=NOCC1 , state its recorded solubility (mole fraction).
Solution: 0.000818

----------
Conditions: in THF, 293.15 K
MEASURED_QUANTITY: solubility (mole fraction)

Exercise: Given Cc1c(C(=O)c2c[nH]n(C)c2=O)ccc(S(C)(=O)=O)c1C1=NOCC1 , state its recorded solubility (mole fraction).
Solution: 0.00351
